Assay: AUC in Beagle dog at 8.0 mg/kg, po
Details: plasma

{"Structure notation": "O=C(N[C@@H]1CCOC[C@@H]1C(=O)NO)c1ccc(Cn2c(C(F)(F)F)nc3ccccc32)cc1", "AUC": "39.5 µM·h"}

###

Target: Matrilysin (Homo sapiens, UniProt P09237)
Sequence (P09237 whole entry): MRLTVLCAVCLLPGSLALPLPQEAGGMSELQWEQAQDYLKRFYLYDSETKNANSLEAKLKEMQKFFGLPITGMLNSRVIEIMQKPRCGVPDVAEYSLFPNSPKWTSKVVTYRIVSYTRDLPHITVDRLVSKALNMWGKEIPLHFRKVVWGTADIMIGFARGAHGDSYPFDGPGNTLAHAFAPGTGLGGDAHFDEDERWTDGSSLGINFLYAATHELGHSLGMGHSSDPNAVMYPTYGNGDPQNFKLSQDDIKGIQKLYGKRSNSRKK
pKi: −log10 of the molar value.
Below is a list of entries, each paired with its recorded pKi value.

{"Structure notation": "Cc1nc2ccccc2n1Cc1ccc(C(=O)N[C@@H]2CN(C(=O)OC(C)(C)C)C[C@@H]2C(=O)NO)cc1", "pKi": 5.23}
{"Structure notation": "CC(C)c1nc2ccccc2n1Cc1ccc(C(=O)N[C@@H]2CN(C(=O)OC(C)(C)C)C[C@@H]2C(=O)NO)cc1", "pKi": 5.46}

###

Experiment: Tmax in Sprague-Dawley rat at 8.0 mg/kg, po
Format: ADME, organism-based
Parameters: dose 8 mg/kg, route oral
Conditions: in vivo

{"Structure notation": "O=C(N[C@@H]1CCOC[C@@H]1C(=O)NO)c1ccc(Cn2c(C(F)(F)F)nc3ccccc32)cc1", "Tmax": "18 min"}

###

Assay: Oral bioavailability in Sprague-Dawley rat at 8.0 mg/kg
Type: ADME, organism-based
Conditions: in vivo

{"Structure notation": "CC(C)c1nc2ccccc2n1Cc1ccc(C(=O)N[C@@H]2CCOC[C@@H]2C(=O)NO)cc1", "bioavailability, %": 8}
{"Structure notation": "O=C(N[C@@H]1CCC[C@@H]1C(=O)NO)c1ccc(Cn2c(C3CC3)nc3ccccc32)cc1", "bioavailability, %": 22}
{"Structure notation": "O=C(N[C@@H]1CCOC[C@@H]1C(=O)NO)c1ccc(Cn2c(C(F)(F)F)nc3ccccc32)cc1", "bioavailability, %": 53}
{"Structure notation": "CC(C)(F)c1nc2ccccc2n1Cc1ccc(C(=O)N[C@@H]2C[C@@]3(CCCO3)C[C@@H]2C(=O)NO)cc1", "bioavailability, %": 33}
{"Structure notation": "CC(C)(F)c1nc2ccccc2n1Cc1ccc(C(=O)N[C@@H]2CCOC[C@@H]2C(=O)NO)cc1", "bioavailability, %": 36}
{"Structure notation": "CC(C)c1nc2ccccc2n1Cc1ccc(C(=O)N[C@@H]2C[C@@]3(CCCO3)C[C@@H]2C(=O)NO)cc1", "bioavailability, %": 22}
{"Structure notation": "CC(C)c1nc2ccccc2n1Cc1ccc(C(=O)N[C@@H]2CCC[C@@H]2C(=O)NO)cc1", "bioavailability, %": 8}
{"Structure notation": "O=C(N[C@@H]1COC[C@@H]1C(=O)NO)c1ccc(Cn2c(C(F)(F)F)nc3ccccc32)cc1", "bioavailability, %": 20}
{"Structure notation": "C#CCN1C[C@H](C(=O)NO)[C@H](NC(=O)c2ccc(Cn3c(C(C)C)nc4ccccc43)cc2)C1", "bioavailability, %": 3}
{"Structure notation": "O=C(N[C@@H]1C[C@@]2(CCCO2)C[C@@H]1C(=O)NO)c1ccc(Cn2c(C3CC3)nc3ccccc32)cc1", "bioavailability, %": 14}
{"Structure notation": "CC(F)(F)c1nc2ccccc2n1Cc1ccc(C(=O)N[C@@H]2CCOC[C@@H]2C(=O)NO)cc1", "bioavailability, %": 55}
{"Structure notation": "C#CCN1C[C@H](C(=O)NO)[C@H](NC(=O)c2ccc(Cn3c(C(C)(C)C)nc4ccccc43)cc2)C1", "bioavailability, %": 8}
{"Structure notation": "CC(C)(C)c1nc2ccccc2n1Cc1ccc(C(=O)N[C@@H]2C[C@@]3(CCCO3)C[C@@H]2C(=O)NO)cc1", "bioavailability, %": 29}
